Reference for the values: the supplement of paper PMC6555819

Reported PBM binding z-score values are given for each entry in this list.
Tested on: PPARg homodimer (NR concentration 180 nM)
Assay: PBM binding z-score (relative to random genomic background probes); higher = stronger binding; sequences stand for … in GC…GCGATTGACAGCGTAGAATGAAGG
# print the numeric value only

Consider the reported PBM binding z-score for these sequences:
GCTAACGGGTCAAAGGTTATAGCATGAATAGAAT
1.81
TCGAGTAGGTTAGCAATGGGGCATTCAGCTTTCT
-0.285
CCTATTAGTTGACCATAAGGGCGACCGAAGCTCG
2.13
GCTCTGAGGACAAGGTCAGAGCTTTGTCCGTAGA
0.274
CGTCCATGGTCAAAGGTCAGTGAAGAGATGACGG
6.15

Q) Could you share which PBM binding z-score value was measured for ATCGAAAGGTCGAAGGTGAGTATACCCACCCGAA ?
A) 1.04

Q) Consider the sequence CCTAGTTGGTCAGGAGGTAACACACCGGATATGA and give its measured PBM binding z-score.
A) 1.37

----------
System: RARb homodimer (NR concentration 270 nM)
Test: PBM binding z-score (relative to random genomic background probes); higher = stronger binding; sequences stand for … in GC…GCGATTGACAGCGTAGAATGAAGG
endpoint-label: PBM binding z-score
Please reply with the value in numeric form only.

Record excerpt, results attached:
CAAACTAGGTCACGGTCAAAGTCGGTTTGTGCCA
4.62
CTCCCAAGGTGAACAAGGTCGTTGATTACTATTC
2.05
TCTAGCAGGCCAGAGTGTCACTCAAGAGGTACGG
0.119
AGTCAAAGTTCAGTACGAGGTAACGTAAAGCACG
3.01

Q) API: value(readout=PBM binding z-score, system=RARb homodimer (NR concentration 270 nM)) for record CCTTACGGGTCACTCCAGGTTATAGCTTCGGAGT
A) 3.13

Q) Test system RARb homodimer (NR concentration 270 nM); read-out PBM binding z-score; what value for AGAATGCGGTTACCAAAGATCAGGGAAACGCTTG ?
A) -0.737

----------
Test system: RXRa DBDmut IVT, anti-RXR (DBD mutation: RXRa K156A/R161A, NR concentration 90 nM)
Assay: PBM binding z-score (relative to random genomic background probes); higher = stronger binding; sequences stand for … in GC…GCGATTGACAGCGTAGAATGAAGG
Outcome: Met for PBM binding z-score of at least 2; Not met for anything lower.

See these solved cases before continuing.
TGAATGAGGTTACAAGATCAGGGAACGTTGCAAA
Not met
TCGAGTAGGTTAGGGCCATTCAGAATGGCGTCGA
Not met

Q) Assess whether reported PBM binding z-score for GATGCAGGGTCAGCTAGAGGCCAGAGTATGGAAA sits at 2 or higher.
A) Not met

----------
System: RARg:RXRa (NR concentration 270 nM, RXRa partner concentration 90 nM)
Assay: PBM binding z-score (relative to random genomic background probes); higher = stronger binding; sequences stand for … in GC…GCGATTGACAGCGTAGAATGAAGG
Entries annotated with measured PBM binding z-score
Respond using a number only.

Consider the following illustrative entries.
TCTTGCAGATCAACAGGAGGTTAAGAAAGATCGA
0.798
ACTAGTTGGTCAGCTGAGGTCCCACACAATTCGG
0.425
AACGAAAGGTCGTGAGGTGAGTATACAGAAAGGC
4.62
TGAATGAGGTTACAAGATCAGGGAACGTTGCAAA
1.79
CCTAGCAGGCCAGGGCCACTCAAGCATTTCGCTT
-0.441

Q) Entry under review: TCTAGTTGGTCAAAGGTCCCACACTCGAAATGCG . Reported PBM binding z-score?
A) 1.55

Q) What measured PBM binding z-score goes with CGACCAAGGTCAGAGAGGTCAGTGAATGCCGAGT ?
A) 6.34
